# measuredOn: RSV protein G (recombinant G protein) (respiratory syncytial virus (RSV), strain not stated)
# assayExplanation: SPR (Biacore), Fab on recombinant antigen
measureName: t1/2 (min)
Number only, in min; omit the unit.

binder	measureName	readoutValue
Fab fragment of antibody clone 796 (Fab) VH: QVQLVESGGGVVQPGRSLRLSCAASGFSFSHFGMHWVRQVPGKGLEWVAIISYDGNNVHYADSVKGRFTISRDNSKNTLFLQMNSLRDDDTGVYYCAKDDVATDLAAYYYFDVWGRGTLVTVSS light: DIVMTQTPLSLSVTPGQPASISCRSSQSLLRSDGKTFLYWYLQKPGQSPQPLMYEVSSRFSGVPDRFSGSGSGADFTLNISRVETEDVGIYYCMQGLKIRRTFGPGTKVEIKRTVAAPSVFIFPPSDEQLKSGTASVVCLLNNFYPREAKVQWKVDNALQSGNSQESVTEQDSKDSTYSLSSTLTLSKADYEKHKVYACEVTHQGLSSPVTKSFNRGEC	t1/2	28.7
Fab fragment of antibody clone 859 (Fab) VH: QVQLVESGGGVVQPGRSLRLSCAVSGSSFSKYGIHWVRQAPGKGLEWVAVISYDGSKKYFTDSVKGRFTIARDNSQNTVFLQMNSLRAEDTAVYYCATGGGVNVTSWSDVEHSSSLGYWGLGTLVTVSS light: DIQMTQSPSSLSASVGDRVTITCRASQGIRNYLAWYQQKPGKVPKLLVFAASTLQSGVPSRFSGSGSGTDFTLTISSLQPEDVATYYCQRYNSAPLTFGGGTKVEIKRTVAAPSVFIFPPSDEQLKSGTASVVCLLNNFYPREAKVQWKVDNALQSGNSQESVTEQDSKDSTYSLSSTLTLSKADYEKHKVYACEVTHQGLSSPVTKSFNRGEC	t1/2	250

# input binder: Fab fragment of antibody clone 853 (Fab) VH: EVQLVQSGAEVKKPGQSLKISCKTSGYIFTNYWIGWVRQRPGKGLEWMGVIFPADSDARYSPSFQGQVTISADKSIGTAYLQWSSLKASDTAIYYCARPKYYFDSSGQFSEMYYFDFWGQGTLVTVSS light: EIVLTQSPGTLSLSPGERATLSCRASQSVSSNYLAWYQQKPGQAPRLLIYGASSRAAGMPDRFSGSGSGTDFTLTISRLEPEDFAVYYCQQYGNSPLTFGGGTEVEIKRTVAAPSVFIFPPSDEQLKSGTASVVCLLNNFYPREAKVQWKVDNALQSGNSQESVTEQDSKDSTYSLSSTLTLSKADYEKHKVYACEVTHQGLSSPVTKSFNRGEC ; wanted: its t1/2
8.25

Source: patent US20090137003A1
